assay.summary: qHTS Validation assay for Inhibitors of Plasmodium falciparum Dd2 growth in vitro; note: nearly all actives have a fitted effect of over 70% in size
protocol.conditions: P. falciparum Dd2 in RBCs, SYBR Green growth, 72 h; series mostly up to 28.7 µM
In all, about 4,100 compounds went through this assay and about 1,600 (39%) were called active. Roughly 25% stayed inconclusive and do not appear here. Calls come from the whole dose curve; as a rule, active = well fitted inhibition curve with a large enough effect; inconclusive = small, poorly fitted or top-dose-only effect; inactive = no such curve, though single readings can be large or run the other way. The list shows a part of the results.
Hi there, use one of these labels in your reply, thanks! T = active, F = inactive

The following molecules have reported results that may help.
COc1ccccc1CC(=O)NCCn1ccn2nc(-c3ccc(C)c(C)c3)cc2c1=O | F
COCCN1Cc2ccc(NCC(C)C)nc2C(C)(C(=O)Nc2ccncc2)C1 (stereo unspecified) | T
O=C(CN1C2=NCCCN2c2ccccc21)c1ccc(Cl)cc1Cl | T
CCN(CCCNC(=O)c1nn(-c2ccc(OC)c(Cl)c2)c(=O)c2c1c1ccccc1n2C)c1cccc(C)c1 | T
COC[C@@H]1CN(C(=O)c2cccc(OC(F)(F)F)c2)C[C@H]1C(N)=O | F

Problem: Outcome? CCN(CC)CCCNC(=O)c1nn(-c2ccc(OC)c(Cl)c2)c(=O)c2c1c1ccccc1n2C
Solution: T

Problem: Next up: CN(C)C[C@@H]1CN(S(C)(=O)=O)C[C@H]1NC(=O)c1ccccc1
Solution: F

Problem: Next up: CCCCOc1cccc(C(=O)N(Cc2ccc(Br)o2)C2CCS(=O)(=O)C2)c1 (stereo unspecified)
Solution: F

----------
assay.summary: qHTS Validation assay for Inhibitors of Plasmodium falciparum Dd2 growth in vitro; note: nearly all actives have a fitted effect of over 70% in size
protocol.conditions: P. falciparum Dd2 in RBCs, SYBR Green growth, 72 h; series mostly up to 28.7 µM
Out of some 4,100 compounds screened, about 1,600 (39%) were called active. Another 25% or so got no clear call; they are omitted. Calls follow the shape of the dose curve; as a rule, active = well fitted inhibition curve with a large enough effect; inconclusive = small, poorly fitted or top-dose-only effect; inactive = no such curve, though single readings can be large or run the other way. Some of the results follow.
Hi there, use one of these labels in your reply, thanks! TRUE = active, FALSE = inactive

The following compounds have reported results that may help.
CCN(CC)C(=O)C[C@@H]1c2nc(NC(=O)c3cccc(F)c3)sc2C[C@@H]2[C@](C)(CO)[C@H](O)CC[C@]21C | TRUE
CCCc1nc2ccc(NC(=O)c3cccs3)cc2c(=O)n1Cc1ccc(Cl)cc1 | TRUE
Cc1ccccc1Nc1nc(-c2cccnc2)cs1 | TRUE
Cc1ccc(Cn2nnc(C(=O)Nc3ccc(F)c(F)c3)c2N)cc1 | FALSE
Cc1cccnc1Nc1nc(-c2ccccn2)cs1 | TRUE
O=C(O)Cn1c(-c2ccccn2)nc2ccccc21 | FALSE
CCOc1cc(C(=O)Nc2nnc(CC)s2)ccc1OCC(=O)N1CCOCC1 | FALSE
c1ccc(CCNc2nc(-c3ccccn3)cs2)cc1 | TRUE
Cc1ccccc1Nc1nnc(SCc2cc(=O)n3ccsc3n2)s1 | FALSE

Query compound follows.
Problem: Outcome? CC1CCN(C(=O)C[C@@H]2c3nc(NC(=O)c4cccc(F)c4)sc3C[C@@H]3[C@](C)(CO)[C@H](O)CC[C@]32C)CC1
Solution: TRUE

----------
assay.summary: qHTS Validation assay for Inhibitors of Plasmodium falciparum Dd2 growth in vitro; note: nearly all actives have a fitted effect of over 70% in size
protocol.conditions: P. falciparum Dd2 in RBCs, SYBR Green growth, 72 h; series mostly up to 28.7 µM
The whole screen tested about 4,100 compounds, of which about 1,600 (39%) were called active. About 25% were inconclusive and are not listed. Calls come from the whole dose curve; as a rule, active = well fitted inhibition curve with a large enough effect; inconclusive = small, poorly fitted or top-dose-only effect; inactive = no such curve, though single readings can be large or run the other way. Some of the results follow.
Hi there, use one of these labels in your reply, thanks! 1 = active, -1 = inactive

CCc1nc(CN(C)C(C(=O)O)c2ccc(C(C)(C)C#N)cc2)no1 (configuration not stated) | -1
CCCCCCCNC(=O)C1(CC2CC(c3cccc(Br)c3)=NO2)CCN(C(=O)c2cc(OCC)c(OCC)c(OCC)c2)CC1 (configuration not stated) | 1
COc1ccc(-c2cc3c(=O)n(CCNC(=O)c4ccc(OC)c(OC)c4)ccn3n2)cc1 | -1
CCc1c(C)[nH]c2ccccc2c1=O | 1

Problem: Outcome? Cc1nc2c(c(N3CCCC(COc4cccc(F)c4)C3)n1)CCNCC2 (configuration not stated)
Solution: 1

Problem: Next up: COc1ccc(-c2cn3c(n2)sc2cc(C(=O)NCCCN4CCCCC4)ccc23)cc1
Solution: 1

Problem: Next up: C=CCc1c(C)[nH]c2ccc(C)cc2c1=O
Solution: -1

Problem: Next up: COc1ccc(-c2cc3c(=O)n(CCNC(=O)c4ccc(OC)nc4)ccn3n2)cc1
Solution: -1

Problem: Next up: CCCN1CCN(CCCNC(=O)c2ccc3c(c2)sc2nc(-c4ccc(OC)cc4)cn23)CC1
Solution: 1

Problem: Next up: O=C(Cc1cccs1)NC1CCN(c2cc(C(F)(F)F)ncn2)CC1
Solution: -1

Problem: Next up: CCOc1ccc(-c2cc3c(=O)n(CCNC(=O)c4ccccc4)ccn3n2)cc1
Solution: -1

Problem: Next up: Cc1ccc2nc(-c3ccccc3O)c(Nc3ccccc3C)n2c1
Solution: 1

Problem: Next up: O=C(COc1ccc(Cl)cc1)NCCc1csc(-c2cccc(F)c2)n1
Solution: -1

Problem: Next up: O=C(Cc1cccc(F)c1)N1CCCC(Cc2nc(C3CCOCC3)no2)C1 (configuration not stated)
Solution: -1

Problem: Next up: CCCNC(=O)N1CC[C@@H]2[C@H]1C(=O)N(c1cccc(F)c1)C(=O)N2Cc1cccs1
Solution: -1

----------
assay.summary: qHTS Validation assay for Inhibitors of Plasmodium falciparum Dd2 growth in vitro; note: nearly all actives have a fitted effect of over 70% in size
protocol.conditions: P. falciparum Dd2 in RBCs, SYBR Green growth, 72 h; series mostly up to 28.7 µM
Among all 4,100 compounds or so, about 1,600 (39%) were called active. Another 25% or so got no clear call; they are omitted. Calls come from the whole dose curve; as a rule, active = well fitted inhibition curve with a large enough effect; inconclusive = small, poorly fitted or top-dose-only effect; inactive = no such curve, though single readings can be large or run the other way. This is one part of the list.
Hi there, use one of these labels in your reply, thanks! active, inactive

COc1cc2c(cc1O)CC[n+]1cc3c(OC)c(OC)ccc3cc1-2 | active
CCn1c2c(c(=N)c3c1CCC3)CCCC2 | active
O=C(Nc1ccccc1O)c1ccc(NC(=O)C2CC2)cc1 | active
c1cc(-c2noc([C@@H]3Cc4nc[nH]c4CN3CC3CCCCC3)n2)ccn1 | active
CCC(=O)N1CCN(c2nc3c(s2)CC(C(=O)NCc2ccc(C)o2)CC3)CC1 (configuration not stated) | inactive
Cc1ccc(CN2CCCN(Cc3ccncc3)C(c3ccccc3)CC(=O)NCC2)s1 (configuration not stated) | active
O=C(c1ccc(F)c(Cl)c1)N1CCC[C@H]1c1nc(-c2ccccc2)no1 | inactive
Cc1ccc(CN2CCCN(Cc3ccncc3)C(c3ccccc3)CC(=O)NCC2)o1 (configuration not stated) | active
Cc1nn(C(=O)CCCC(=O)N2CCCC2c2nc(C3CCOCC3)no2)c2ccccc12 (configuration not stated) | inactive
O=C(O)CC1(CC(=O)N2CCN3C(=O)N(Cc4ccccc4)C(=O)[C@H]3C2)CCCC1 | inactive

Problem: Outcome? Cc1cn2nc(C(=O)NCc3ccccc3Cl)cc2c(=O)[nH]1
Solution: inactive

Problem: Next up: CCOC(=O)N1CCc2c(sc3nc4n(c(=O)c23)N=C(c2ccc(OC)cc2)CS4)C1
Solution: inactive

Problem: Next up: Nc1cc(Cl)ccc1N1CCCC1
Solution: inactive

Problem: Next up: O=C1Nc2ccccc2C12Nc1ccccc1-c1nc3ccccc3n12 (configuration not stated)
Solution: active

Problem: Next up: CCn1c2c(c(=N)c3ccccc31)CCC2
Solution: active

Problem: Next up: COCCN1CCNc2nc(CNCc3cnccn3)n(Cc3ccccc3)c2C1=O
Solution: inactive

----------
assay.summary: qHTS Validation assay for Inhibitors of Plasmodium falciparum Dd2 growth in vitro; note: nearly all actives have a fitted effect of over 70% in size
protocol.conditions: P. falciparum Dd2 in RBCs, SYBR Green growth, 72 h; series mostly up to 28.7 µM
The campaign covered roughly 4,100 compounds. About 1,600 (39%) were called active. Roughly 25% stayed inconclusive and do not appear here. The call rests on the fitted dose curve; in most records, active means well fitted inhibition curve with a large enough effect; inconclusive means small, poorly fitted or top-dose-only effect; inactive means no such curve, though single readings can be large or run the other way. The list shows a part of the results.
Hi there, use one of these labels in your reply, thanks! true for active, false for inactive

The following molecules have reported results that may help.
CCN1CCN(c2cc(C)c3cc(NC(=O)c4ccc(Br)o4)ccc3n2)CC1 | true
CCOC(=O)c1ccc(Nc2nnc(C(C)(C)C)c(=O)[nH]2)cc1 | true
Cc1cc(N2CCN(C)CC2)nc2ccc(NC(=O)c3ccc(Br)o3)cc12 | true
CCN(CC)c1cc(C)c2cc(NC(=O)c3ccc(Br)o3)ccc2n1 | true

Problem: Outcome? Cc1ccoc1C(=O)Nc1ccc(CC(=O)O)cc1
Solution: false

Problem: Next up: Cn1c2ccc(F)cc2c2nnc(SCCN3CCCCC3)nc21
Solution: true

----------
assay.summary: qHTS Validation assay for Inhibitors of Plasmodium falciparum Dd2 growth in vitro; note: nearly all actives have a fitted effect of over 70% in size
protocol.conditions: P. falciparum Dd2 in RBCs, SYBR Green growth, 72 h; series mostly up to 28.7 µM
Screen size: about 4,100 compounds; about 1,600 (39%) were called active. About 25% were inconclusive and are not listed. The call rests on the fitted dose curve; in most records, active means well fitted inhibition curve with a large enough effect; inconclusive means small, poorly fitted or top-dose-only effect; inactive means no such curve, though single readings can be large or run the other way. The list shows a part of the results.
Hi there, use one of these labels in your reply, thanks! active, inactive

The following compounds have reported results that may help.
CC(C)CCN(CCC(C)C)CC(O)Cn1c2ccccc2c(=O)c2ccccc21 (stereo not given) | active
COc1ccc(CCn2c(=N)c(C(=O)NCc3ccco3)cc3c(=O)n4cccc(C)c4nc32)cc1 | active
Cc1cn2nc(C(=O)N3CCC(NC(=O)c4nccc5ccccc45)CC3)cc2c(=O)[nH]1 | inactive
COc1ccc(CCn2c(=N)c(C(=O)NCCN3CCOCC3)cc3c(=O)n4cccc(C)c4nc32)cc1OC | active

Query compound follows.
Problem: Outcome? CCCc1noc(-c2cccn3c(CNC(=O)c4ccc(OC)cc4C)nnc23)n1
Solution: inactive
